meta.source: the supplement of paper PMC10307832

Hi there, I'd appreciate the recorded relative viability for every entry that follows.
- System: ChaGo-K-1
- assay_overview: relative viability (nuclei count vs DMSO), 5 days (fraction); higher = more cells survive
- conditions_used: first compound 2 µM

Query: relative viability; subject: CN1CCN(CCOc2cc(OC3CCOCC3)c3c(Nc4c(Cl)ccc5c4OCO5)ncnc3c2)CC1 [Saracatinib] + Cc1cc(Nc2cc(N3CCN(C)CC3)nc(Sc3ccc(NC(=O)C4CC4)cc3)n2)n[nH]1 [Tozasertib] (partner 0.1 µM)
0.198

Query: relative viability; subject: CN1CCN(CCOc2cc(OC3CCOCC3)c3c(Nc4c(Cl)ccc5c4OCO5)ncnc3c2)CC1 [Saracatinib] + Nc1ncn([C@H]2C[C@H](O)[C@@H](CO)O2)c(=O)n1 [Decitabine] (partner 2 µM)
0.542

Query: relative viability; subject: CN1CCN(CCOc2cc(OC3CCOCC3)c3c(Nc4c(Cl)ccc5c4OCO5)ncnc3c2)CC1 [Saracatinib] + Cc1nc(Nc2ncc(C(=O)Nc3c(C)cccc3Cl)s2)cc(N2CCN(CCO)CC2)n1 [Dasatinib] (partner 0.075 µM)
0.459

Query: relative viability; subject: Cc1csc(=NC2CCCCC2)n1/N=C/c1ccc(O)c(O)c1O [MIM1] + COc1cc2c(Oc3ccc(NC(=O)C4(C(=O)Nc5ccc(F)cc5)CC4)cc3F)ccnc2cc1OCCCN1CCOCC1 [Foretinib] (partner 0.25 µM)
0.774

* * *

Hi there, I'd appreciate the recorded relative viability for every entry that follows.
- System: HCC-44
- assay_overview: relative viability (nuclei count vs DMSO), 5 days (fraction); higher = more cells survive
- conditions_used: first compound 0.2 µM
# respond with the number and nothing more

Query: relative viability; subject: Cc1csc(=NC2CCCCC2)n1/N=C/c1ccc(O)c(O)c1O [MIM1] + CS(=O)(=O)CCNCc1ccc(-c2ccc3ncnc(Nc4ccc(OCc5cccc(F)c5)c(Cl)c4)c3c2)o1 [Lapatinib] (partner 2 µM)
1.07

Query: relative viability; subject: CCNC(=O)c1noc(-c2cc(C(C)C)c(O)cc2O)c1-c1ccc(CN2CCOCC2)cc1 [Luminespib] + Cc1nc(NC(=O)N2CCC[C@H]2C(N)=O)sc1-c1ccnc(C(C)(C)C(F)(F)F)c1 [Alpelisib] (partner 2 µM)
0.154

* * *

- Tested on: NCI-H441
- assay_overview: relative viability (nuclei count vs DMSO), 5 days (fraction); higher = more cells survive
- conditions_used: first compound 0.001 µM
Hi there, I'd appreciate the recorded relative viability for every entry that follows.
# respond with the number and nothing more

Query: relative viability; subject: Cc1cn(-c2cc(NC(=O)c3ccc(C)c(Nc4nccc(-c5cccnc5)n4)c3)cc(C(F)(F)F)c2)cn1 [Nilotinib] + COc1cccc2cc(-c3nc([C@H]4CC[C@H](C(=O)O)CC4)n4ncnc(N)c34)[nH]c12 [OSI-027] (partner 0.5 µM)
0.524

Query: relative viability; subject: Cc1cn(-c2cc(NC(=O)c3ccc(C)c(Nc4nccc(-c5cccnc5)n4)c3)cc(C(F)(F)F)c2)cn1 [Nilotinib] + CS(=O)(=O)N1CCN(Cc2cc3nc(-c4cccc5[nH]ncc45)nc(N4CCOCC4)c3s2)CC1 [Pictilisib] (partner 1 µM)
0.371

Query: relative viability; subject: Cc1cn(-c2cc(NC(=O)c3ccc(C)c(Nc4nccc(-c5cccnc5)n4)c3)cc(C(F)(F)F)c2)cn1 [Nilotinib] + N=C(N)NC(=N)NCCc1ccccc1 [Phenformin] (partner 250 µM)
0.798

Query: relative viability; subject: Cc1cn(-c2cc(NC(=O)c3ccc(C)c(Nc4nccc(-c5cccnc5)n4)c3)cc(C(F)(F)F)c2)cn1 [Nilotinib] + Cc1nc(Nc2ncc(C(=O)Nc3c(C)cccc3Cl)s2)cc(N2CCN(CCO)CC2)n1 [Dasatinib] (partner 0.075 µM)
0.523

Query: relative viability; subject: Cc1cn(-c2cc(NC(=O)c3ccc(C)c(Nc4nccc(-c5cccnc5)n4)c3)cc(C(F)(F)F)c2)cn1 [Nilotinib] + CC(C)C[C@H](NC(=O)[C@H](Cc1ccccc1)NC(=O)c1cnccn1)B(O)O [Bortezomib] (partner 0.002 µM)
0.33

* * *

- Test system: NCI-H23
- assay_overview: relative viability (nuclei count vs DMSO), 5 days (fraction); higher = more cells survive
- conditions_used: first compound 0.003162 µM
Hi there, I'd appreciate the recorded relative viability for every entry that follows.
# respond with the number and nothing more

Query: relative viability; subject: Cc1cn(-c2cc(NC(=O)c3ccc(C)c(Nc4nccc(-c5cccnc5)n4)c3)cc(C(F)(F)F)c2)cn1 [Nilotinib] + C[C@]1(O)C[C@@H](c2nc(-c3ccc4ccc(-c5ccccc5)nc4c3)c3c(N)nccn32)C1 [Linsitinib] (partner 1 µM)
0.686

Query: relative viability; subject: Cc1cn(-c2cc(NC(=O)c3ccc(C)c(Nc4nccc(-c5cccnc5)n4)c3)cc(C(F)(F)F)c2)cn1 [Nilotinib] + Cc1nc(Nc2ncc(C(=O)Nc3c(C)cccc3Cl)s2)cc(N2CCN(CCO)CC2)n1 [Dasatinib] (partner 0.075 µM)
0.681

Query: relative viability; subject: Cc1cn(-c2cc(NC(=O)c3ccc(C)c(Nc4nccc(-c5cccnc5)n4)c3)cc(C(F)(F)F)c2)cn1 [Nilotinib] + Nc1nc2[nH]cc(CCc3ccc(C(=O)N[C@@H](CCC(=O)O)C(=O)O)cc3)c2c(=O)[nH]1 [Pemetrexed] (partner 0.2 µM)
0.553

Query: relative viability; subject: Cc1cn(-c2cc(NC(=O)c3ccc(C)c(Nc4nccc(-c5cccnc5)n4)c3)cc(C(F)(F)F)c2)cn1 [Nilotinib] + Cc1cc(Nc2cc(N3CCN(C)CC3)nc(Sc3ccc(NC(=O)C4CC4)cc3)n2)n[nH]1 [Tozasertib] (partner 0.1 µM)
0.329

Query: relative viability; subject: Cc1cn(-c2cc(NC(=O)c3ccc(C)c(Nc4nccc(-c5cccnc5)n4)c3)cc(C(F)(F)F)c2)cn1 [Nilotinib] + CS(=O)(=O)N1CCN(Cc2cc3nc(-c4cccc5[nH]ncc45)nc(N4CCOCC4)c3s2)CC1 [Pictilisib] (partner 1 µM)
0.498

* * *

Hi there, I'd appreciate the recorded relative viability for every entry that follows.
- Test system: LU99A
- assay_overview: relative viability (nuclei count vs DMSO), 5 days (fraction); higher = more cells survive
- conditions_used: first compound 2.53 µM
# respond with the number and nothing more

Query: relative viability; subject: Nc1cccc2c1CN(C1CCC(=O)NC1=O)C2=O (centres undefined) [Lenalidomide] + CC(C)C[C@H](NC(=O)[C@H](Cc1ccccc1)NC(=O)c1cnccn1)B(O)O [Bortezomib] (partner 0.002 µM)
1.05

Query: relative viability; subject: Nc1cccc2c1CN(C1CCC(=O)NC1=O)C2=O (centres undefined) [Lenalidomide] + CC(=O)Nc1cccc(-n2c(=O)n(C3CC3)c(=O)c3c(Nc4ccc(I)cc4F)n(C)c(=O)c(C)c32)c1 [Trametinib] (partner 0.02 µM)
0.644

Query: relative viability; subject: Nc1cccc2c1CN(C1CCC(=O)NC1=O)C2=O (centres undefined) [Lenalidomide] + Cc1nc(NC(=O)N2CCC[C@H]2C(N)=O)sc1-c1ccnc(C(C)(C)C(F)(F)F)c1 [Alpelisib] (partner 2 µM)
0.501

Query: relative viability; subject: Nc1cccc2c1CN(C1CCC(=O)NC1=O)C2=O (centres undefined) [Lenalidomide] + CC(=O)c1c(C)c2cnc(Nc3ccc(N4CCNCC4)cn3)nc2n(C2CCCC2)c1=O [Palbociclib] (partner 0.5 µM)
0.361

* * *

- Test system: NCI-H1975
- assay_overview: relative viability (nuclei count vs DMSO), 5 days (fraction); higher = more cells survive
- conditions_used: first compound 8 µM
Hi there, I'd appreciate the recorded relative viability for every entry that follows.
# respond with the number and nothing more

Reported relative viability for NCI-H1975, given Nc1cccc2c1CN(C1CCC(=O)NC1=O)C2=O (configuration not stated) [Lenalidomide] + CS(=O)(=O)N1CCN(Cc2cc3nc(-c4cccc5[nH]ncc45)nc(N4CCOCC4)c3s2)CC1 [Pictilisib] (partner 1 µM) ?
0.223

Reported relative viability for NCI-H1975, given Nc1cccc2c1CN(C1CCC(=O)NC1=O)C2=O (configuration not stated) [Lenalidomide] + CS(=O)(=O)CCNCc1ccc(-c2ccc3ncnc(Nc4ccc(OCc5cccc(F)c5)c(Cl)c4)c3c2)o1 [Lapatinib] (partner 2 µM) ?
0.909

Reported relative viability for NCI-H1975, given Nc1cccc2c1CN(C1CCC(=O)NC1=O)C2=O (configuration not stated) [Lenalidomide] + O=C(c1cc(Cc2n[nH]c(=O)c3ccccc23)ccc1F)N1CCN(C(=O)C2CC2)CC1 [Olaparib] (partner 8 µM) ?
0.995

Reported relative viability for NCI-H1975, given Nc1cccc2c1CN(C1CCC(=O)NC1=O)C2=O (configuration not stated) [Lenalidomide] + Cc1cc(Nc2cc(N3CCN(C)CC3)nc(Sc3ccc(NC(=O)C4CC4)cc3)n2)n[nH]1 [Tozasertib] (partner 0.1 µM) ?
0.849

Reported relative viability for NCI-H1975, given Nc1cccc2c1CN(C1CCC(=O)NC1=O)C2=O (configuration not stated) [Lenalidomide] + C[C@]1(O)C[C@@H](c2nc(-c3ccc4ccc(-c5ccccc5)nc4c3)c3c(N)nccn32)C1 [Linsitinib] (partner 1 µM) ?
1.12

Reported relative viability for NCI-H1975, given Nc1cccc2c1CN(C1CCC(=O)NC1=O)C2=O (configuration not stated) [Lenalidomide] + CC1(C)CCC(c2ccc(Cl)cc2)=C(CN2CCN(c3ccc(C(=O)NS(=O)(=O)c4ccc(N[C@H](CCN5CCOCC5)CSc5ccccc5)c(S(=O)(=O)C(F)(F)F)c4)cc3)CC2)C1 [Navitoclax] (partner 0.5 µM) ?
1.19

Reported relative viability for NCI-H1975, given Nc1cccc2c1CN(C1CCC(=O)NC1=O)C2=O (configuration not stated) [Lenalidomide] + COc1cc2c(Oc3ccc(NC(=O)C4(C(=O)Nc5ccc(F)cc5)CC4)cc3F)ccnc2cc1OCCCN1CCOCC1 [Foretinib] (partner 0.25 µM) ?
1.14
